- SYSTEM: δ-opioid receptor of the mouse vas deferens (MVD) (mouse), P32300
- Sequence (P32300 whole entry, stated change not applied): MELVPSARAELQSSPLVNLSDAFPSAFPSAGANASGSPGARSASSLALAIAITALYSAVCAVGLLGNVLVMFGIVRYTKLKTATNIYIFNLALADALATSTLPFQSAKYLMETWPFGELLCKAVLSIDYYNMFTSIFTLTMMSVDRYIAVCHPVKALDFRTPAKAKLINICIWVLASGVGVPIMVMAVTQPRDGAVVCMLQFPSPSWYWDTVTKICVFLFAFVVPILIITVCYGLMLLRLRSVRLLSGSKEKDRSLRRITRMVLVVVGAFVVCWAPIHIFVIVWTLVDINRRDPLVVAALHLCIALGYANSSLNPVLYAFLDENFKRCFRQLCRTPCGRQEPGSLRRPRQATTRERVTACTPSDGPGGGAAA
- ASSAY METHOD TEXT: cell-based or functional assay
Non-standard residues stand in square brackets, D forms with d. *: point of attachment. des‑NH2‑α‑pyrrole‑1‑yl = replacement of the α-amino group by a pyrrol-1-yl group; NH(1-Adamantyl) = C1C2CC3CC1CC(N*)(C2)C3; Dmt = Cc1cc(O)cc(C)c1C[C@H](N)C(=O)O; NH‑tetrazole‑5‑yl = n1nc(N*)n[nH]1; Tic = O=C(O)[C@@H]1Cc2ccccc2CN1; NHtBu = CC(C)(C)N*
READOUT: log10 MVD Ke (log10 of the value in nM)
Scale: decimal log of MVD Ke, MVD Ke in nM.

# example entries with known answers
H-[Dmt]-[Tic]-Ala-NHtBu (SMILES Cc1cc(O)cc(C)c1C[C@H](N)C(=O)N1Cc2ccccc2C[C@H]1C(=O)N[C@@H](C)C(=O)NC(C)(C)C) [H-Dmt-Tic-Ala-NH-tBu]	-0.16
{N,N‑dimethyl}-[Dmt]-[Tic]-OH (also: tritium-labelled form used as radioligand) [N,N(Me)2-Dmt-Tic-OH]	-0.55
H-[Dmt]-[Tic]-Ala-OH [H-Dmt-Tic-Ala-OH]	0.60
H-[Dmt]-[Tic]-NH2 [H-Dmt-Tic-NH2]	1.62
{des‑NH2‑α‑pyrrole‑1‑yl}-[Dmt]-[Tic]-OH [[des-NH2-α-pyrrole-1-yl]-Dmt-Tic-OH]	2.61
H-[Dmt]-[Tic]-Ala-NH2 [H-Dmt-Tic-Ala-NH2]	0.95
H-[Dmt]-[Tic]-{NH‑tetrazole‑5‑yl} [H-Dmt-Tic-NH-tetrazole-5-yl]	1.56
{N,N‑dimethyl}-[Dmt]-[Tic]-NHMe [N,N(Me)2-Dmt-Tic-NHMe]	-0.39

# context switch: different binder, same log10 MVD Ke
// query Looking for the measured log10 MVD Ke of {N,N‑dimethyl}-[Dmt]-[Tic]-{NH(1-Adamantyl)} [N,N(Me)2-Dmt-Tic-NH-1-adamantane] , can you help?
// result -0.06
